measurement_notes: Cytotoxicity against human U2OS cells assessed as reduction in cell viability incubated for 72 hrs by MTT assay
Type: cell-based
Where a SMILES comes first, the peptide text is derived from it. [ ]: non-standard residue; d: D form. The star is where a group is joined. Cbz = O=C(OCc1ccccc1)*; Ac3c = NC1(C(=O)O)CC1
Item-by-item account of CC50 at 72 h

Reference set, count: 5
| compound | CC50 at 72 h |
| --- | --- |
| O=CC1(NC(=O)[C@H](Cc2ccccc2)NC(=O)OCc2ccccc2)CC1 (Cbz-Phe-[Ac3c]-aldehyde) | 3 µM |
| O=C(N[C@@H](Cc1ccccc1)C(=O)Nc1cnoc1)OCc1ccccc1 | > 100 µM |
| N#CC1(NC(=O)[C@H](Cc2ccccc2)NC(=O)OCc2ccccc2)CC1 | 6 µM |
| N#CCNC(=O)[C@H](Cc1ccccc1)NC(=O)OCc1ccccc1 | > 100 µM |
| CN(C#N)N(C)C(=O)[C@H](Cc1ccccc1)NC(=O)OCc1ccccc1 | 10.2 µM |

Exercise: Form field: reported CC50 at 72 h of `O=C(N[C@@H](Cc1ccccc1)C(=O)Nc1cnoc1)c1ccccc1`
Solution: > 100 µM

Exercise: Request: `O=C(N[C@@H](Cc1c[nH]c2ccccc12)C(=O)Nc1cnoc1)c1ccccc1`
Solution: > 100 µM

Exercise: Request: `CNC(=O)/C=C/C1(NC(=O)[C@H](Cc2ccccc2)NC(=O)OCc2ccccc2)CC1`
Solution: > 100 µM

Exercise: Request: `O=C(N[C@@H](Cc1ccccc1)C(=O)NC/C=N/O)OCc1ccccc1`
Solution: > 100 µM
